Test system: A549
Assay type: cell-based
MEASURED_PARAMETER: CC50 (µM)
The figure you give is taken to be in µM; do not add the unit.

### Prompt State, in one line, measured CC50 of COn1cc(C2CCNC(=NC(C)=O)N2)c2cc(Br)c(Br)cc21 (single isomer, unassigned)
### Response 1.15

----------
Test system: HT29
Type: cell-based
MEASURED_PARAMETER: CC50 (nM)
The figure you give is taken to be in nM; do not add the unit.

COMPOUND	CC50 / nM
COn1cc(C2CCNC(=NC(C)=O)N2)c2cc(Br)c(Br)cc21 (single isomer, unassigned)	2480

### Prompt State, in one line, measured CC50 of COn1cc(C2CCNC(=NC(C)=O)N2)c2cc(Br)ccc21 (single isomer, unassigned)
### Response 767

----------
System: MDA-MB-231
Assay type: cell-based
MEASURED_PARAMETER: CC50 (µM)
The figure you give is taken to be in µM; do not add the unit.

COMPOUND	CC50 (µM)
COn1cc(C2CCNC(=NC(C)=O)N2)c2cc(Br)c(Br)cc21 (single isomer, unassigned) [Compound VI]	4.95
CC(=O)N=C1NCCC(c2c[nH]c3ccc(Br)cc23)N1 (single isomer, unassigned) [Compound II]	6.26

# input for lookup
### Prompt State, in one line, measured CC50 of COn1cc(C2CCNC(=NC(C)=O)N2)c2cc(Br)ccc21 (single isomer, unassigned) [Compound IV]
### Response 5.2
